- TESTED_TARGET: EGFR Δ19del/T790M/C797S (Homo sapiens, UniProt P00533, T790M/C797S, form not given)
- Sequence (P00533 with tags, fused parts or gaps DEL746-750/T790M/C797S, form open): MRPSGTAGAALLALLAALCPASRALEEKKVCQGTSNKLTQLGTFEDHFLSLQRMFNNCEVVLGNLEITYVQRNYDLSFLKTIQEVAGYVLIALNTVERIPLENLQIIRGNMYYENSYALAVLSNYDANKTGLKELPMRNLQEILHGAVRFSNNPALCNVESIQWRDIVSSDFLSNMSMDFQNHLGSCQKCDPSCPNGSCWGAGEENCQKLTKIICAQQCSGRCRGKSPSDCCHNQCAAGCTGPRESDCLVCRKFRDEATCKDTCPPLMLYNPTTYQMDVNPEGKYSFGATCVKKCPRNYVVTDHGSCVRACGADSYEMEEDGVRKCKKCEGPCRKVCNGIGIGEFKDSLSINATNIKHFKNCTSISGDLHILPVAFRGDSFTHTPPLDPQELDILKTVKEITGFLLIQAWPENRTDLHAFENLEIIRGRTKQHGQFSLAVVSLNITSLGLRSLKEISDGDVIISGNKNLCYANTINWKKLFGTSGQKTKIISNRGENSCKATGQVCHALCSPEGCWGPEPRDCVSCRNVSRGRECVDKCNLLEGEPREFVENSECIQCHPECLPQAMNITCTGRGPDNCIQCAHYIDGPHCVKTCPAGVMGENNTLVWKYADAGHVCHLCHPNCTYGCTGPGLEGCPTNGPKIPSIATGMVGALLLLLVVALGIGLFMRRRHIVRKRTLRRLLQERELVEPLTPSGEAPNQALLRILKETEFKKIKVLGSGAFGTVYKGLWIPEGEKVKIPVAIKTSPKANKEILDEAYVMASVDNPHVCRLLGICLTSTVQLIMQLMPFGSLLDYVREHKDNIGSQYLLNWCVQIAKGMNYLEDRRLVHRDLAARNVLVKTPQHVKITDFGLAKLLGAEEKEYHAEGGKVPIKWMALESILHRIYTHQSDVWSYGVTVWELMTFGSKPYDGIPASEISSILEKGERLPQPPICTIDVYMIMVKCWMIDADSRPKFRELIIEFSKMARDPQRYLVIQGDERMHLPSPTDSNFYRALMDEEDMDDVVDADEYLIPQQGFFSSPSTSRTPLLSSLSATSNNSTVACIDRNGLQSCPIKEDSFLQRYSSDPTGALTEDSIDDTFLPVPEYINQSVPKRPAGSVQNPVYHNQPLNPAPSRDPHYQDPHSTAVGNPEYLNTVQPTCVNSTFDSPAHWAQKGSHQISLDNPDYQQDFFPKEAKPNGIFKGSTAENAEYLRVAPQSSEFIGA
- PROCEDURE_SUMMARY: Kinase inhibition assay (mobility shift)
- Method: Experiment 1 Kinase Inhibition Assay Mobility shift assays were performed to determine inhibitory activity of compounds against EGFR^Δ19del/T790M/C797S, EGFR WT and IGF1R kinases. The enzymatic reaction scheme is as follows: 1. Preparing 1*Kinase Buffer as follows: 2. […] 10. Reading the conversion rate with Caliper EZ Reader. [formula] • wherein, “Conversion % sample” is the conversion rate reading of the sample; […]
So I've got a bunch of compounds here, and I need their log10 IC50 values.
Scale type: logarithmic (base 10). Underlying IC50 unit: nM.

Query: log10 IC50; subject: "COc1cc(Nc2ncc(Br)c(Nc3ccc4nc(-c5cnn(C)c5)ccc4c3P(C)(C)=O)n2)c(C)cc1N1CCOCC1"
-0.70

May I ask what log10 IC50 has been recorded for "COc1cc(Nc2ncc(Br)c(Nc3ccc4nc(C5CC5)ccc4c3P(C)(C)=O)n2)cc(C)c1N1CCC(N2CCN(C)CC2)CC1" ?
-0.66

Returns the measured log10 IC50 for the input compound. Input: "COc1cc(N2CCN(C)CC2)c(C#N)cc1Nc1ncc(Br)c(Nc2ccc3nc(C4CC4)ccc3c2P(C)(C)=O)n1"
-0.70

What value of measured log10 IC50 is listed for "COc1cc(Nc2ncc(Br)c(Nc3ccc4nc(C5CC5)ccc4c3P(C)(C)=O)n2)c(C)cc1N1CCC(N(C)C)CC1" ?
-0.52

I would be grateful if you could share the reported log10 IC50 for "COc1cc(N2CCC(N3CCN(C)CC3)CC2)c(C)cc1Nc1ncc(Br)c(Nc2ccc3nc(C4CC4)ccc3c2P(C)(C)=O)n1" .
-0.52

Which log10 IC50 reading was recorded for the compound "COc1cc(-c2ccc(N3CCN(C)CC3)cc2)c(C)cc1Nc1ncc(Br)c(Nc2ccc3nc(C4CC4)ccc3c2P(C)(C)=O)n1" ?
0.78

Which log10 IC50 value belongs to "CCc1ccc2c(P(C)(C)=O)c(Nc3nc(Nc4cc(C)c(N5CCC(N6CCN(C)CC6)CC5)cc4OC)ncc3Br)ccc2n1" ?
-0.85

Fill in the blank: the reported log10 IC50 of "CCc1cc(N2CCC(N3CCN(C)CC3)CC2)c(OC)cc1Nc1ncc(Br)c(Nc2ccc3nc(C4CC4)ccc3c2P(C)(C)=O)n1" is ____.
-0.30

Quick one: log10 IC50 of "COc1cc(N2CCC(N3CCN(C)CC3)CC2)c(OC)cc1Nc1ncc(Br)c(Nc2ccc3nc(C4CC4)ccc3c2P(C)(C)=O)n1" ?
-0.14

I am curious: what log10 IC50 value has been reported for "COc1cc(N2CCN(C)CC2)c(C)cc1Nc1ncc(Br)c(Nc2ccc3nc(C4CC4)ccc3c2P(C)(C)=O)n1" ?
-0.70

Please look up its log10 IC50: "CCCc1ccc2c(P(C)(C)=O)c(Nc3nc(Nc4cc(C)c(N5CCC(N6CCN(C)CC6)CC5)cc4OC)ncc3Br)ccc2n1"
-0.52

Please give the measured log10 IC50 for this compound: "COc1cc(Nc2ncc(Br)c(Nc3ccc4nc(C5CC5)ccc4c3P(C)(C)=O)n2)c(C2CC2)cc1N1CCOCC1"
-0.15

Sample "COc1cc(Nc2ncc(Br)c(Nc3ccc4nc(C5CC5)ccc4c3P(C)(C)=O)n2)c(C)cc1N1CCOCC1" — what was its log10 IC50?
-0.30

Value lookup for log10 IC50; key = "COc1cc(N2CCN(C3CCCC3)CC2)c(C)cc1Nc1ncc(Br)c(Nc2ccc3nc(C4CC4)ccc3c2P(C)(C)=O)n1"
0.00

// lookup log10 IC50 for "COc1cc(Nc2ncc(Br)c(Nc3ccc4nc(C5CC5)ccc4c3P(C)(C)=O)n2)c(C)cc1N1CCN(C2CCCC2)CC1"
-0.30

Item "C#Cc1ccc2c(P(C)(C)=O)c(Nc3nc(Nc4cc(C)c(N5CCC(N6CCN(C)CC6)CC5)cc4OC)ncc3Br)ccc2n1" has what recorded log10 IC50?
-0.40

Could you share which log10 IC50 value was measured for "COc1cc(N2CCC(N3CCN(C)CC3)CC2)c(F)cc1Nc1ncc(Br)c(Nc2ccc3nc(C4CC4)ccc3c2P(C)(C)=O)n1" ?
-0.48

Entry "COc1cc(N2CCN(C3CC3)CC2)c(C)cc1Nc1ncc(Br)c(Nc2ccc3nc(C4CC4)ccc3c2P(C)(C)=O)n1" has what log10 IC50?
-0.05

Which log10 IC50 value is on record for "COc1cc(N2CCC(N3CCN(C)CC3)CC2)c(C)cc1Nc1ncc(Br)c(Nc2ccc3ncccc3c2P(C)(C)=O)n1" ?
-0.70

What does the data say about its log10 IC50? Entry: "COc1cc(Nc2ncc(Br)c(Nc3ccc4nc(C5CC5)ccc4c3P(C)(C)=O)n2)c(C)cc1N1CCC(N2CCN(C)CC2)CC1"
-0.55

Fill in: log10 IC50 of "COc1cc(Nc2ncc(Br)c(Nc3ccc4nc(C5CC5)ccc4c3P(C)(C)=O)n2)c(C2CC2)cc1N1CCC(N2CCN(C)CC2)CC1" is ___
-0.30

# input compound: "C#Cc1ccc2c(P(C)(C)=O)c(Nc3nc(Nc4cc(CC)c(N5CCC(N6CCN(C)CC6)CC5)cc4OC)ncc3Br)ccc2n1" ; wanted: its log10 IC50
-0.72

Need log10 IC50 of "COc1cc(Nc2ncc(Br)c(Nc3ccc4nc(C5CC5)ccc4c3P(C)(C)=O)n2)c(C2CCOCC2)cc1N1CCC(N2CCN(C)CC2)CC1" , thanks.
1.56

Recorded log10 IC50 for "COc1cc(N2CCC(N3CCN(C)CC3)CC2)c(C#N)cc1Nc1ncc(Br)c(Nc2ccc3nc(C4CC4)ccc3c2P(C)(C)=O)n1" , please?
-0.52
